This collection of values is drawn from paper PMC9728385.

molecular target: TtCST Ctc1 R395E/Y445A/F473A (Tetrahymena, UniProt A0PGB2;Q6JXI5;D2CVN7;D2CVN8 1-622;1-373;1-164;1-422, R395E;Y445A;F473A); test: EMSA
Sequence (A0PGB2 whole entry R395E/Y445A/F473A, chain 1 of 4): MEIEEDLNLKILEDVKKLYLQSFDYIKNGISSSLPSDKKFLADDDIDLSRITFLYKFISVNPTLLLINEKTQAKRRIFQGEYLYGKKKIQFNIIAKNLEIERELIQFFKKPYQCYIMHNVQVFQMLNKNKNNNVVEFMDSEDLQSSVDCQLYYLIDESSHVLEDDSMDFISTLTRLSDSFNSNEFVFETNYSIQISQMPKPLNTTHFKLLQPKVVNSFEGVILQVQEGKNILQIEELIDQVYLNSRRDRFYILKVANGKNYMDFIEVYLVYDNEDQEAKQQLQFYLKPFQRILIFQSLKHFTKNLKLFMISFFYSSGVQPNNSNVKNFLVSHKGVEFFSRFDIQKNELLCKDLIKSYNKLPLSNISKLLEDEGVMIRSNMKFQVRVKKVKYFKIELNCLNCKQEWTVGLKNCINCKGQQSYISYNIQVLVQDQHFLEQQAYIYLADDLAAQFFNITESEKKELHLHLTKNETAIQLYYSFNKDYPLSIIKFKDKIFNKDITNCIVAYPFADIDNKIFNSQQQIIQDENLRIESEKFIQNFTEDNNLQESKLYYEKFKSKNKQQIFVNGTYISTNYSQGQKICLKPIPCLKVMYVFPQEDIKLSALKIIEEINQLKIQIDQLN
Sequence (Q6JXI5 whole entry, chain 2 of 4): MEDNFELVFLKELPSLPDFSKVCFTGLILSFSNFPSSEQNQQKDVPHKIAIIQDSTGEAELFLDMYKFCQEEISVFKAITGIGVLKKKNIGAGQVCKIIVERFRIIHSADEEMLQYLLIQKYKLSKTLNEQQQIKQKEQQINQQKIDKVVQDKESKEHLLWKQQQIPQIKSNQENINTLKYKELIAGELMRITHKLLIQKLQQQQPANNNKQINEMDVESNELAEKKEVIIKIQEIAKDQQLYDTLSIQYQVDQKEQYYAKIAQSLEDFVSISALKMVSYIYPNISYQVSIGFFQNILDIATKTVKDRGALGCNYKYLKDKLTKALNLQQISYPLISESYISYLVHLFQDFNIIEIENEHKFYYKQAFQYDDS
Sequence (D2CVN7 whole entry, chain 3 of 4): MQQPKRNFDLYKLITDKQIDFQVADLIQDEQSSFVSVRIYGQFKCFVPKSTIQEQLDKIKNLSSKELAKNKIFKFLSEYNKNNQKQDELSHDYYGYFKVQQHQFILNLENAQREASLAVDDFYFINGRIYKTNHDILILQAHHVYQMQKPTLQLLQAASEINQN
Sequence (D2CVN8 whole entry, chain 4 of 4): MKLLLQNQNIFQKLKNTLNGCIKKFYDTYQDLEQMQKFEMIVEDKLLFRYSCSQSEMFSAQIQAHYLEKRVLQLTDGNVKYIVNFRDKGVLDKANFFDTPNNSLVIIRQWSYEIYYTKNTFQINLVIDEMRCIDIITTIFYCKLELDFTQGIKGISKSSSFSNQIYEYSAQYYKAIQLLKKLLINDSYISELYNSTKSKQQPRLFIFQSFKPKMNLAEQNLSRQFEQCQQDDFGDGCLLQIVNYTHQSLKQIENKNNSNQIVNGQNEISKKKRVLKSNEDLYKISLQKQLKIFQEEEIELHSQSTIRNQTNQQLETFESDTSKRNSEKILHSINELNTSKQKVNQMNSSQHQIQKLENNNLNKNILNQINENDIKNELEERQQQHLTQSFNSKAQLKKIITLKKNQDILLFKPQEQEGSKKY
measure.name: Kd
The number alone won't do; follow it with the unit.

Lookup: Tell me the measured Kd of GTTGGGGTTGGGGTTGGGGTTGGGGTTGGG (ssDNA) [d(GTTGGG)5] , please.
Found: 520 nM
